B1: ARL6IP1 (parent)
chain: YLDPSVLSGVSCFVMFLCLADYLV

- Variants of: B1
- assay.protocol: protein stability index of a GFP-peptide fusion (GPS, HEK-293T) (PSI 1-6); higher = more stable;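 also: lentivirally expressed fusions sorted by FACS into six bins by GFP to DsRed ratio, PSI derived from sequencing read proportions per bin multiplied by bin number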
- run.conditions: c terminus: a fixed tail appended
Listing of entries alongside the reported protein stability index.
Give the figure only, with no unit attached.

Past entries and their recorded results:
1. S5D 3.07
2. V10M 2.44
3. V14F 2.09
4. A20W 2.47
5. V6T 2.39
6. G9Q 3.72

Entry under review: `F16V` . Reported protein stability index? 3.72
